Recorded measurements of Kb, one per entry
- Experimental target: C5a receptor (Homo sapiens)
- Construct: endogenous in cells; host or cells: leukocytes/granulocytes in freshly drawn whole blood of healthy volunteers
- Sequence (P21730 1-350): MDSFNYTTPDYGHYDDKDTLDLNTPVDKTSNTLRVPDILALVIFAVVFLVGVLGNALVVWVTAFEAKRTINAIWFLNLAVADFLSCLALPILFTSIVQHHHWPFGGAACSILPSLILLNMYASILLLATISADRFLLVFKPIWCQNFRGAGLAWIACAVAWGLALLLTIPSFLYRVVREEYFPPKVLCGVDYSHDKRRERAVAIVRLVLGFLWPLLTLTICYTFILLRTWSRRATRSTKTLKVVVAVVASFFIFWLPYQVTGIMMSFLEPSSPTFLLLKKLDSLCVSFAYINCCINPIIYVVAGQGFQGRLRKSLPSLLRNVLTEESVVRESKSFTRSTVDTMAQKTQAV
- Method summary: HWB CD11b expression assay (C5a-challenged granulocytes, flow cytometry)
- Type: cell-based

{"Structure smiles": "N=C(N)NCCC[C@@H]1NC(=O)[C@H](Cc2n[nH]c3ccccc23)NC(=O)[C@@H](C[C@H]2CC[C@@H](O)CC2)NC(=O)[C@@H]2C[C@@H](O)CN2C(=O)[C@@H](NC(=O)[C@H](Cc2ccccc2)NCC(=O)O)CCCNC1=O", "Unit label": "nM", "Kb": 75.2}
{"Structure smiles": "N=C(N)NCCC[C@@H]1NC(=O)[C@H](Cc2c[nH]c3ccccc23)NC(=O)[C@@H](C[C@H]2CC[C@@H](O)CC2)NC(=O)[C@@H]2C[C@@H](N)CN2C(=O)[C@@H](NC(=O)[C@H](Cc2ccccc2)NCC(=O)O)CCCNC1=O", "Unit label": "nM", "Kb": 19.8}
{"Structure smiles": "CCc1ccc2c(C[C@@H]3NC(=O)[C@@H](C[C@H]4CC[C@@H](O)CC4)NC(=O)[C@@H]4C[C@@H](O)CN4C(=O)[C@@H](NC(=O)[C@H](Cc4ccccc4)NCC(=O)O)CCCNC(=O)[C@H](CCCNC(=N)N)NC3=O)c[nH]c2c1", "Unit label": "nM", "Kb": 234}
{"Structure smiles": "N=C(N)NCCC[C@@H]1NC(=O)[C@H](Cc2c[nH]c3ccccc23)NC(=O)[C@@H](C[C@H]2CC[C@@H](O)CC2)NC(=O)[C@@H]2C[C@@H](OCC(=O)O)CN2C(=O)[C@@H](NC(=O)[C@H](Cc2ccccc2)NCC(=O)O)CCCNC1=O", "Unit label": "nM", "Kb": 28.8}
{"Structure smiles": "COc1ccc2[nH]cc(C[C@@H]3NC(=O)[C@@H](C[C@H]4CC[C@@H](O)CC4)NC(=O)[C@@H]4C[C@@H](O)CN4C(=O)[C@@H](NC(=O)[C@H](Cc4ccccc4)NCC(=O)O)CCCNC(=O)[C@H](CCCNC(=N)N)NC3=O)c2c1", "Unit label": "nM", "Kb": 53.8}
{"Structure smiles": "Cc1cnn(C[C@@H]2NC(=O)[C@@H](C[C@H]3CC[C@@H](O)CC3)NC(=O)[C@@H]3C[C@@H](O)CN3C(=O)[C@@H](NC(=O)[C@H](Cc3ccccc3)NCC(=O)O)CCCNC(=O)[C@H](CCCNC(=N)N)NC2=O)c1", "Unit label": "nM", "Kb": 212}
{"Structure smiles": "N=C(N)NCCC[C@@H]1NC(=O)[C@H](Cc2c[nH]c3ccccc23)NC(=O)[C@@H](C[C@H]2CC[C@@H](O)CC2)NC(=O)[C@@H]2C[C@@H](O)CN2C(=O)[C@@H](NC(=O)[C@H](Cc2ccccc2)NCC(=O)O)CCCNC1=O", "Unit label": "nM", "Kb": 13.1}
{"Structure smiles": "N=C(N)NCCC[C@@H]1NC(=O)[C@H](Cc2c[nH]c3ccccc23)NC(=O)[C@@H](C[C@H]2CC[C@@H](O)CC2)NC(=O)[C@@H]2C[C@H](NCC(=O)O)CN2C(=O)[C@@H](NC(=O)[C@H](Cc2ccccc2)NCC(=O)O)CCCNC1=O", "Unit label": "nM", "Kb": 32.6}
{"Structure smiles": "N=C(N)NCCC[C@@H]1NC(=O)[C@H](Cc2c[nH]c3ncccc23)NC(=O)[C@@H](C[C@H]2CC[C@@H](O)CC2)NC(=O)[C@@H]2C[C@@H](O)CN2C(=O)[C@@H](NC(=O)[C@H](Cc2ccccc2)NCC(=O)O)CCCNC1=O", "Unit label": "nM", "Kb": 460}
{"Structure smiles": "N=C(N)NCCC[C@@H]1NC(=O)[C@H](Cc2c[nH]c3ccccc23)NC(=O)[C@@H](C[C@H]2CC[C@@H](O)CC2)NC(=O)[C@@H]2C[C@H](N)CN2C(=O)[C@@H](NC(=O)[C@H](Cc2ccccc2)NCC(=O)O)CCCNC1=O", "Unit label": "nM", "Kb": 10.9}
{"Structure smiles": "CC(=O)N[C@H]1C[C@H]2C(=O)N[C@H](C[C@H]3CC[C@@H](O)CC3)C(=O)N[C@@H](Cc3c[nH]c4ccccc34)C(=O)N[C@@H](CCCNC(=N)N)C(=O)NCCC[C@H](NC(=O)[C@H](Cc3ccccc3)NCC(=O)O)C(=O)N2C1", "Unit label": "nM", "Kb": 11.7}
{"Structure smiles": "CC(=O)N[C@@H]1C[C@H]2C(=O)N[C@H](C[C@H]3CC[C@@H](O)CC3)C(=O)N[C@@H](Cc3c[nH]c4ccccc34)C(=O)N[C@@H](CCCNC(=N)N)C(=O)NCCC[C@H](NC(=O)[C@H](Cc3ccccc3)NCC(=O)O)C(=O)N2C1", "Unit label": "nM", "Kb": 32.6}

Values were extracted from patent US20190270778A1.
